- Test system: HepG2 cells
- test.details: Mitochondrial superoxide production (MitoSOX)
- Assay type: cell-based, human
- study.conditions: HepG2, 24 h exposure
Concentration at which significant increase in mitochondrial superoxide was observed listing for selected molecules.
Numeric only. Scale: µM

Completed entries (count: 2):
CC(N)Cc1ccc(Cl)cc1 (stereo not drawn) : 500
CNC(C)C(=O)c1ccccc1 (stereo not drawn) : 2000

Request: Check HepG2 cells data and give Concentration at which significant increase in mitochondrial superoxide was observed for CNC(C)C(=O)c1ccc(Cl)cc1 (stereo not drawn) .
Response: 1000

Request: Check HepG2 cells data and give Concentration at which significant increase in mitochondrial superoxide was observed for CNC(C)C(=O)c1ccc(F)cc1 (stereo not drawn) .
Response: 2000

Request: Check HepG2 cells data and give Concentration at which significant increase in mitochondrial superoxide was observed for CC(N)Cc1ccc(F)cc1 (stereo not drawn) .
Response: 1000

Request: Check HepG2 cells data and give Concentration at which significant increase in mitochondrial superoxide was observed for CC(N)Cc1ccccc1 (stereo not drawn) .
Response: 2000

====

- Test system: HepG2 cells
- test.details: Mechanisms of cell death (annexin V / propidium iodide flow cytometry)
- Format: cell-based, human
- study.conditions: HepG2, 24 h exposure; highest concentration 2 mM
Concentration causing significant reduction in cell viability (annexin V staining) listing for selected compounds.
Numeric only. Scale: µM

CC(N)Cc1ccc(Cl)cc1 (centres unmarked) : 500
CC(N)Cc1ccc(F)cc1 (centres unmarked) : 1000

# evaluate next
Request: Query Concentration causing significant reduction in cell viability (annexin V staining) for CNC(C)C(=O)c1ccc(Cl)cc1 (centres unmarked)
Response: 1000

====

- tested.target: human DAT (Homo sapiens, UniProt Q01959)
- Construct: expressed in transfected cells; host or cells: HEK 293 (stably transfected)
- Sequence (Q01959 whole entry): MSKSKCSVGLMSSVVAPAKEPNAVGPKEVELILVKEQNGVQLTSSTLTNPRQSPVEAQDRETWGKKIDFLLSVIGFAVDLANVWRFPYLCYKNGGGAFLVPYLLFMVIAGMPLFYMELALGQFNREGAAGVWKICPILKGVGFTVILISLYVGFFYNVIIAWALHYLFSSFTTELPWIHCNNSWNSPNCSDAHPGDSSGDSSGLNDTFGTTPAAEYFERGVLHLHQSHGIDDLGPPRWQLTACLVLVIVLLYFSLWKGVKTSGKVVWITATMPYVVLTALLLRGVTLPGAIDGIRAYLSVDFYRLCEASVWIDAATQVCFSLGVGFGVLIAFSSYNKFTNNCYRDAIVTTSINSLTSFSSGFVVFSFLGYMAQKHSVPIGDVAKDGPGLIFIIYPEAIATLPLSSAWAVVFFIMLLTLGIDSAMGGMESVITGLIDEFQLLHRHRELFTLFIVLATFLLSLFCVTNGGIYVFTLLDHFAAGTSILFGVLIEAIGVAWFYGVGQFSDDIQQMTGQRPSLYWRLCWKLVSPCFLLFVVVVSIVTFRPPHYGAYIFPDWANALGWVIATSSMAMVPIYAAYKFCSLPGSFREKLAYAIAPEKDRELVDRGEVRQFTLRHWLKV
- test.details: Dopamine uptake inhibition in hDAT-transfected HEK 293 cells
- Format: cell-based
measurement.name: DAT/SERT ratio

Completed entries (count: 4):
CC(N)Cc1ccc(Cl)cc1 (centres unmarked) : 0.14 (0.07–0.25)
CC(N)Cc1ccc(F)cc1 (centres unmarked) : 3.6 (1.9–6.5)
CNC(C)C(=O)c1ccccc1 (centres unmarked) : 34 (20–57)
CNC(C)C(=O)c1ccc(Cl)cc1 (centres unmarked) : 0.45 (0.25–0.83)

# evaluate next
Request: Query DAT/SERT ratio for CNC(C)C(=O)c1ccc(F)cc1 (centres unmarked)
Response: 5.6 (3.3–9.4)

====

- tested.target: UniProt P31645
- Sequence (P31645 whole entry): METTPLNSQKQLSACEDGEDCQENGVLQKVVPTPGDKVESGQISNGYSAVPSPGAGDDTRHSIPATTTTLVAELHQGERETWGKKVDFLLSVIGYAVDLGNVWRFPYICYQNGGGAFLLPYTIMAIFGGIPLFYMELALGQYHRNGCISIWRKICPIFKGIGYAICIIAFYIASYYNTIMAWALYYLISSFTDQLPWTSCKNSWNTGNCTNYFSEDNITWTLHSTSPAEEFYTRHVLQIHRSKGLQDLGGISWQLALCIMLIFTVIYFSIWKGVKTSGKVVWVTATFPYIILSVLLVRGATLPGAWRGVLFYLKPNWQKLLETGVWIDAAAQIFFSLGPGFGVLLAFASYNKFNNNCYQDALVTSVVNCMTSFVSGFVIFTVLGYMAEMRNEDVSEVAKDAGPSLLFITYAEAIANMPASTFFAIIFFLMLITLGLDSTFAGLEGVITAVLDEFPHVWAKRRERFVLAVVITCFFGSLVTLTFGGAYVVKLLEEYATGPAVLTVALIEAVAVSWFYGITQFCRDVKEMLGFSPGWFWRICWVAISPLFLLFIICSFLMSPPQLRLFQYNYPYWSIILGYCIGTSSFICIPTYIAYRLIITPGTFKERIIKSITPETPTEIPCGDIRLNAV
- test.details: Serotonin uptake inhibition in hSERT-transfected HEK 293 cells
pIC50: −log10 of the molar value.
Decision: pIC50 compared against 6; not below it gives 1.0, below it gives 0.0.

Example cases with answers are listed next.
CNC(C)C(=O)c1ccc(F)cc1 (centres unmarked) : 0.0
CNC(C)C(=O)c1ccccc1 (centres unmarked) : 0.0
CC(N)Cc1ccc(F)cc1 (centres unmarked) : 0.0
CC(N)Cc1ccc(Cl)cc1 (centres unmarked) : 1.0

Then there is this molecule:
Request: Textbook exercise: given the entry CNC(C)C(=O)c1ccc(Cl)cc1 (centres unmarked) , state whether its pIC50 is greater than or equal to 6.
Response: 0.0

====

IC50 listing for selected molecules.
- tested.target: human NET (Homo sapiens, UniProt P23975)
- Sequence (P23975 whole entry): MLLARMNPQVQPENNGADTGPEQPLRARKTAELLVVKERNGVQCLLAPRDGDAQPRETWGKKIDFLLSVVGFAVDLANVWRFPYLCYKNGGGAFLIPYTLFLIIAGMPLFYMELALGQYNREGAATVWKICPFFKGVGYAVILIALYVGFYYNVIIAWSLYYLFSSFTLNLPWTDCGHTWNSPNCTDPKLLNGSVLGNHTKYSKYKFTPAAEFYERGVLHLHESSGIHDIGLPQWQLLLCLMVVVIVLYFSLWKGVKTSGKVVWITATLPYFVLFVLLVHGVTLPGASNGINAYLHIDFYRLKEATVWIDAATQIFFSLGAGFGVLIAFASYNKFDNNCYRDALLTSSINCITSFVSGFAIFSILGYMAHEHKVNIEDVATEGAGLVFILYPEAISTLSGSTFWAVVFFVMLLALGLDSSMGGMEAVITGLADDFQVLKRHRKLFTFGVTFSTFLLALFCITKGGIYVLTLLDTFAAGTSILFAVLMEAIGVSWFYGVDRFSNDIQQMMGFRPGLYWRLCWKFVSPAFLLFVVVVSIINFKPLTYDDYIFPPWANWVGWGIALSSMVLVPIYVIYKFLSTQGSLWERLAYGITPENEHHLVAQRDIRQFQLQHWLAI
- test.details: Norepinephrine uptake inhibition in hNET-transfected HEK 293 cells
Numeric only. Scale: nM

Completed entries (count: 3):
CNC(C)C(=O)c1ccc(F)cc1 (centres unmarked) [4-Fluoromethcathinone, 4-fluoromethcathinone] : 350
CC(N)Cc1ccc(F)cc1 (centres unmarked) [4-Fluoroamphetamine, 4-fluoroamphetamine] : 150
CNC(C)C(=O)c1ccccc1 (centres unmarked) [Methcathinone, methcathinone] : 120

Request: Query IC50 for CNC(C)C(=O)c1ccc(Cl)cc1 (centres unmarked) [4-Chloromethcathinone, 4-chloromethcathinone]
Response: 430

Request: Query IC50 for CC(N)Cc1ccc(Cl)cc1 (centres unmarked) [4-Chloroamphetamine]
Response: 320
